System: RXF 393 renal
Assay: NCI tumour cell line growth inhibition, 48 h
endpoint: log10 TGI (log10 of the value in µM)
Hey, these are logged values: log10 of TGI, µM being the unit before logging.

Some molecules with recorded log10 TGI:
C=C1C(=O)O[C@H]2[C@H]1CC/C(COC(=O)NCCc1ccc(Br)cc1)=C\CC[C@@]1(C)O[C@@H]21 :: 0.43
COc1cc(N2CCN(C(C)C)CC2)ccc1Nc1nc(Nc2ccc(F)cc2C(N)=O)c2cc[nH]c2n1 :: 0.72
C#Cc1cccc(NC(=O)C2CCCCN2C(=O)CCl)c1 (stereo not drawn) :: 1.54
O/N=C1/C(=C/c2ccc(Br)cc2)CCCC1C(NO)c1ccc(Br)cc1 (stereo not drawn) :: 1.49
Cc1ccc2c(=O)cc(-c3ccccc3)[nH]c2n1 :: -0.31

QUERY: Record request: log10 TGI value, item O=C1C(Nc2ccc(S(=O)(=O)Nc3cnc4ccccc4n3)cc2)=CC(=Nc2ccc(S(=O)(=O)Nc3cnc4ccccc4n3)cc2)c2ccccc21
RESULT: 1.51

QUERY: Record request: log10 TGI value, item COc1ccc(C2CC(=O)Nc3c2c(C)nn3-c2nc3ccccc3[nH]2)cc1OC (stereo not drawn)
RESULT: 0.76

QUERY: Record request: log10 TGI value, item CN(CCCNC(=O)c1[nH]nc2c1ccc1ccccc12)CCCNC(=O)c1[nH]nc2c1ccc1ccccc12
RESULT: 1.48

QUERY: Record request: log10 TGI value, item O=C(Nc1ccn(C2CCC(COC(c3ccccc3)(c3ccccc3)c3ccccc3)O2)c(=O)n1)c1ccccc1 (stereo not drawn)
RESULT: 1.05

QUERY: Record request: log10 TGI value, item COc1cc(/C=C/[N+](=O)[O-])cc(OC)c1
RESULT: 0.51

QUERY: Record request: log10 TGI value, item COc1ccc(CNCCN2C(=O)c3ccc4c5c(ccc(c35)C2=O)C(=O)N(CCNCc2ccc(OC)c(OC)c2OC)C4=O)c(OC)c1OC
RESULT: 0.15

QUERY: Record request: log10 TGI value, item Cc1c(-c2c(F)cc(C(N)=O)c3[nH]c4c(c23)CC[C@H](C(C)(C)O)C4)cccc1-n1c(=O)c2cccc(F)c2n(C)c1=O
RESULT: 0.73

QUERY: Record request: log10 TGI value, item Cc1ccc(S(=O)(=O)N(CC(O)COc2ccccc2)c2ccccc2Cl)cc1 (stereo not drawn)
RESULT: 1.51

QUERY: Record request: log10 TGI value, item COc1ccccc1-c1nc[nH]c1-c1ccccc1OC
RESULT: 1.94

QUERY: Record request: log10 TGI value, item CCN1CCC(O)(/C=C/c2ccc(Cl)c(Cl)c2)C(C(=O)/C=C/c2ccc(Cl)c(Cl)c2)C1 (stereo not drawn)
RESULT: 0.43

QUERY: Record request: log10 TGI value, item Oc1ccccc1-c1cnnc(-c2ccccc2O)c1
RESULT: 1.75

QUERY: Record request: log10 TGI value, item Cc1cc(NCCCCCCCCNc2cc(C)nc3cc(N(C)C)ccc23)c2ccc(N(C)C)cc2n1
RESULT: 1.46

QUERY: Record request: log10 TGI value, item Clc1ccc(Nc2nnc(COc3ccccc3)c3ccccc23)cc1
RESULT: 0.70

----------
Test system: NCI-H23 lung
Assay: NCI tumour cell line growth inhibition, 48 h; in the data active = GI50 below about 0.43 µM; inactive = the rest
API: response.call in 1.0 (active), 0.0 (inactive)

For orientation, consider the following solved cases.
O=C(O)[C@@H](Cc1ccccc1)NS(=O)(=O)c1ccc(-c2ccccc2)cc1 :: 0.0
Cc1cccc(Nc2ncc(-c3ccccc3)o2)c1 :: 0.0
Nc1nc(N)c2c(n1)NC(c1ccc(Cl)cc1)C1CCc3ccccc3C1=N2 (stereo unspecified) :: 0.0
Nc1ncnc2c1ncn2Cc1ccc(CCl)cc1 :: 0.0
O=C(/C=C/c1cc2ccccc2[nH]c1=O)c1ccc(O)cc1 :: 0.0

QUERY: Assay outcome for Cc1ccc2c(c1)n([O-])c(C(F)(F)F)c(C(=O)c1ccco1)[n+]2=O : what was it?
RESULT: 0.0

QUERY: Assay outcome for CC1(/C=C/c2ccc(-c3ccccc3)cc2)CCn2cnc3ncnc(c32)N1O (stereo unspecified) : what was it?
RESULT: 0.0

QUERY: Assay outcome for C=C1[C@H](O)C[C@@H](C(C)C(O)CC=C(C)C)[C@@H](O)[C@@H]2C(C)=CC[C@@H]12 (stereo partly specified) : what was it?
RESULT: 0.0

QUERY: Assay outcome for CCN(Cc1c(F)cccc1C(F)(F)F)c1ccc(CO)c(Cl)c1 : what was it?
RESULT: 0.0

QUERY: Assay outcome for CS(=O)(=O)Nc1cc(-c2ccc3ncnc(Nc4ccc(OCc5ccccn5)c(Cl)c4)c3c2)cnc1Cl : what was it?
RESULT: 1.0

QUERY: Assay outcome for COc1cc(-c2cc(-c3ccc(Nc4nc(Nc5ccc(Cl)cc5)nc(Nc5ccc(Cl)cc5)n4)cc3)no2)cc(OC)c1OC : what was it?
RESULT: 0.0
